Experiment: small-molecule microarray binders of probe aShh, primary screen, biochemical, biotinylated probe, 635/667 nm fluorescence (AID 1114);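 also: probe is biotin-labelled aShh protein from a stem cell growth factor screen; measures binding of labelled protein to compounds printed on the slide; score merges feature fluorescence at 667 nm with signal-to-noise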
Conditions: higher = more signal

compound: COc1ccc(O[C@H]2C=C[C@@H](c3ccccc3)O[C@@H]2COC(=O)CCC(C)=NOC[C@@H](O)COCc2ccco2)cc1
composite z-score: -0.267

compound: COC(=O)[C@H](C)NC(=O)CCC1CC(OC(=O)NCc2ccc3c(c2)OCO3)CC2(CCCC(COC(=O)NCCC(C)C)O2)O1 (some centres undefined)
composite z-score: -0.0553

compound: CCOC(=O)[C@H](CC(C)C)NC(=O)CCC1CC(OC(=O)NCc2ccc3c(c2)OCO3)CC2(CCCC(COC(=O)NCCOC)O2)O1 (some centres undefined)
composite z-score: -0.2

compound: C#CCCCON=C1C[C@@H](O)[C@@H](O)[C@@H]2[C@@H]3C(=O)N(C4CCCCC4)C(=O)[C@@H]3CC[C@@H]12
composite z-score: -0.212

* * *

Biological target: Luciferin 4-monooxygenase (Photinus pyralis)
Test: firefly luciferase enzyme inhibitors, primary screen, biochemical, luminescence, purified enzyme, 2006 set (AID 1141);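 also: cell-free assay with purified firefly luciferase at 100 ng per well in PBS; test concentration not given here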
Settings: SteadyGlo luminescence, 30 min, higher = more signal, called active from +8 up or from −8 down
# label = yes if z-score >= 0.4 else no

compound: COC(=O)CC=C[C@@H](C)[C@@H](C=NOC[C@@H](C)[C@H](OCc1ccccc1)C(C)C)NS(=O)(=O)c1ccc(C)cc1
class_name: yes

compound: CON=C(C)CCC(=O)OC[C@H]1O[C@H](C#Cc2ccccc2)C=C[C@@H]1Oc1ccc(C)cc1
class_name: no

compound: CC(C)[C@H](NC(=O)OC(C)(C)C)[C@@H](O)CC(=O)C(C)(C)C
class_name: no

compound: CC(CCN1CCCCc2nc(C)c(C)cc21)=NO[C@H](C)c1cn([C@@H]2COC[C@H]2O)nn1
class_name: yes

compound: COC(=O)C1=C(C)N(Cc2ccccc2)C2=C3C(=O)OCC[C@@H]3[C@@](O)(C(=O)OC)C(=O)N2[C@@H]1c1ccccc1
class_name: no

compound: C#CCCCON=C1C[C@@H](O)[C@@H](O)[C@@H]2[C@@H]3C(=O)N(C[C@@H]4CCCO4)C(=O)[C@@H]3CC[C@@H]12
class_name: no

compound: C=CC[C@@H]1C=C[C@H](Oc2ccc(C)cc2)[C@@H](COC(=O)NCc2cccc3ccccc23)O1
class_name: no

compound: CC(=O)OC[C@H]1O[C@H](CC=NO[C@@H](C)c2cc(-c3c(C)cc(C)cc3C)no2)C=C[C@@H]1OC(C)=O
class_name: yes

compound: CCOC(=O)[C@H](CC(C)C)NC(=O)CCC1CC(OC(=O)NCCc2ccc(F)cc2)CC2(CCCC(COC(=O)NCCCN3CCCC3=O)O2)O1 (stereo partly specified)
class_name: yes

compound: COC(=O)CC=C[C@@H](C)[C@@H](C=NOC(C)CN1CCCc2nc(C)c(C)cc21)NS(=O)(=O)c1ccc(C)cc1 (stereo partly specified)
class_name: yes

compound: O=C1CCCC=C1C(O)COCc1ccccc1 (stereo unspecified)
class_name: no

compound: CC(=O)OC[C@H]1O[C@H](CC=NOCC[C@@H]2C=C[C@H](OC(C)=O)[C@@H](COC(C)=O)O2)C=C[C@@H]1OC(C)=O
class_name: yes

compound: COC(=O)CC=C[C@@H](C)[C@@H](C=NOC[C@@H](O)COCc1ccco1)OC
class_name: no

compound: O=C1[C@H]2[C@H]3[C@H](O)[C@H](O)CC(=NOCc4ccccc4)[C@@H]3CC[C@H]2C(=O)N1c1cccc(Oc2ccccc2)c1
class_name: no

compound: CO[C@@H](C(C)C)[C@@H](C)C1OC(=O)CC1O (stereo partly specified)
class_name: no
